Answer each item with its documented pIC50.
- Tested on: TCF/LEF reporter activity
- protocol.details: Wnt/driven TCF/LEF reporter (Luc) activity in HEK293 cell line assay
- Assay type: cell-based
- applied.conditions: Homo sapiens; TCF/LEF reporter (Luc)-HEK293 cells, LiCl and mouse Wnt3a stimulation; read-out: IC50 value of compounds against TCF/LEF reporter activity
Numbers only, as −log10 of the molar value.

compound | pIC50
O=C1[C@H](Cc2ccc(O)cc2)N2C(=O)C[C@@H](CO)N(C(=O)NCc3ccccc3)[C@H]2CN1Cc1cccc2ccccc12 [Compound 3] | 4.80

Look up and report measured pIC50 for this entry: O=C1[C@H](Cc2ccc(O)cc2)N2C(=O)[C@H](CO)N(C(=O)NCc3ccccc3)[C@H]2CN1Cc1cccc2ccccc12 [Compound 4]
4.95

* * *

- System: TCF/LEF reporter activity
- protocol.details: Wnt/driven TCF/LEF reporter (Luc) activity in HEK293 cell line assay
- Assay type: cell-based
- applied.conditions: TCF/LEF reporter (Luc)-HEK293 cells, LiCl and mouse Wnt3a stimulation; read-out: IC50 value of compounds against TCF/LEF reporter activity
quantity.kind: IC50 (nM)
Numbers only, in nM.

Give the observed IC50 of O=C(Nc1cccc2cccnc12)c1ccc(N2C(=O)[C@@H]3[C@H](C2=O)[C@@H]2C=C[C@H]3C2)cc1 [IWR-1-endo, reference compound] for TCF/LEF reporter activity.
200

* * *

- System: CBP/β-catenin (Wnt-driven luciferase activity)
- protocol.details: SuperTOPFLASH cell-based luciferase assay (Hek293, STF1.1)
- applied.conditions: Homo sapiens; Hek293 STF1.1 cells; tested at 2.5, 5, 10 and 20 μM
quantity.kind: IC50

Look up and report measured IC50 for this entry: O=C1[C@H](Cc2ccc(O)cc2)N2C(=O)C[C@@H](CO)N(C(=O)NCc3ccccc3)[C@H]2CN1Cc1cccc2ccccc12 [Compound 3]
2.5 µM

These entries and their values trace back to patent US12168665B2.
